- method notes: compounds altering in vitro BBB leakiness – cell-based, FITC-avidin fluorescence, HTS, primary screen (AID 1963498); further: test concentration not given here
- assay conditions: brain endothelial barrier, actives lie on both sides
Calls of active or inactive are those of the source. No stated cut-off is given here; in the data, active means fold change permeability below about 0.7 or above about 1.3; inactive means in between. Residues, ends and D or L forms follow the SMILES beside them. *: point of attachment. Cbz = O=C(OCc1ccccc1)*
I would appreciate it if you answered using one of these outcomes: class 1 (active), class 0 (inactive)

QUERY: Record lookup: outcome of this test for COc1cc(C(O)C(=O)O)ccc1O (stereo not given) ?
RESULT: class 0

QUERY: Name the outcome recorded for CN1CCN(C2Cc3ccccc3Sc3ccc(Cl)cc32)CC1 (stereo not given) in the assay.
RESULT: class 0

QUERY: How did this test come out for "C[N+](C)(C)CCOC(=O)CCC(=O)OCC[N+](C)(C)C" ?
RESULT: class 0

QUERY: Please indicate how the test categorized CC(C)[C@H](NC(=O)OCc1ccccc1)C(=O)N[C@H](C=O)Cc1ccccc1 (Cbz-Val-Phe-aldehyde) .
RESULT: class 1

QUERY: Per the assay record, what outcome was assigned to "O=c1[nH]c(=O)c2nc3ccccc3nc2[nH]1" ?
RESULT: class 1

QUERY: What is the recorded call for this compound in the test? "NCCOc1cc(C(=O)Nc2cc(OCCN)c3ccccc3n2)nc(C(=O)Nc2cc(OCCN)c3ccccc3n2)c1"
RESULT: class 0

QUERY: Kindly provide the recorded test outcome for the following compound: "CN1[C@@H](CC(=O)c2ccccc2)CCC[C@H]1C[C@H](O)c1ccccc1"
RESULT: class 1

QUERY: Field: outcome | Entry: "O=P(O)(O)C(O)(Cn1ccnc1)P(=O)(O)O"
RESULT: class 0

QUERY: Kindly provide the recorded test outcome for the following compound: CCCCN(CCCC)CC(O)c1cc(Cl)cc2c1-c1ccc(Cl)cc1/C2=C/c1ccc(Cl)cc1 (stereo not given)
RESULT: class 0

QUERY: What outcome does the record of this test show for "O=C(O)C1=CC(=C(c2ccc(O)c(C(=O)O)c2)c2ccc(O)c(C(=O)O)c2)C=CC1=O" ?
RESULT: class 0

QUERY: What outcome does the record of this test show for "O=C1CCc2cc(OCCCCc3nnnn3C3CCCCC3)ccc2N1" ?
RESULT: class 0
